Overview of recorded melting point for various compounds

Previously resolved entries follow.
compound=COC(=O)c1[nH]c2cccc(C)c2c1Sc1ccc(Cl)cc1 measured="192 to 193 °C"
compound="O=C(CCC(=O)N1CCCCC1c1ccccc1)c1ccc2c(c1)CCNCC2 (stereo not given)" measured="114 °C"
compound=O=C(O)c1cc2cccc(I)c2s1 measured="268 to 270 °C"
compound="COC1C(OC(=O)c2ccccc2)C(COC(=O)c2ccccc2)OC1n1ccc(=O)[nH]c1=O (stereo not given)" measured="132 to 134 °C"

Task item: Data request, read-out melting point, for `C#CCOc1cc(-n2c(OC)nc(C(F)(F)F)cc2=O)c(F)cc1Br`
Reply: 136 to 138 °C

Task item: Follow-up item: `O=NCNC1=Nc2ccc([N+](=O)[O-])cc2C(c2ccccc2Cl)=NC1`
Reply: 164 to 166 °C

Task item: Follow-up item: `CCNC(=O)OCCCCCCCCC1CC2=C(C1)C(=O)C(OC)=C(OC)C2=O`
Reply: 85 to 86 °C
